Recorded values, source ChEMBL document CHEMBL4619796.

- assay-name: Clearance in BALB/c mouse at 1 mg/kg, […] by HPLC analysis
- Type: ADME, organism-based
- condition-set: in vivo
recorded-metric: CL/F

>  <structure-smiles-string>
CNC(=O)[C@H](C)Cn1cnc2ccc(-c3cnc(OC)c(NS(=O)(=O)c4cccc(C(F)(F)F)c4)c3)cc2c1=O

>  <CL/F>
9 mL/min/kg

$$$$
>  <structure-smiles-string>
COc1ncc(-c2ccc3ncn(C[C@@H](C)C(N)=O)c(=O)c3c2)cc1NS(=O)(=O)c1ccc(F)cc1Cl

>  <CL/F>
9.8 mL/min/kg

$$$$

In the following, a different compound is considered.
Name the reported CL/F value associated with the compound CNC(=O)[C@H](C)Cn1cnc2ccc(-c3cnc(OC)c(NS(=O)(=O)c4ccc(F)cc4Cl)c3)cc2c1=O 4.2 mL/min/kg

* * *

- Organism: Homo sapiens
- assay-name: Selectivity ratio of IC50 for PI3Kbeta (unknown origin) using PIP2:3PS peptide as substrate preincubated for 15 mins followed by ATP addition at Km concentration and further incubated for 120 mins by ADP-Glo assay to IC50 for PI3Kalpha (unknown origin) using PIP2:3PS peptide as substrate preincubated for 15 mins followed by ATP addition at Km concentration and further incubated for 150 mins by ADP-Glo assay
Recorded Ratio IC50 by entry
Output: the number by itself.

>  <compound>
CNC(=O)[C@H](C)Cn1cnc2ccc(-c3cnc(OC)c(NS(=O)(=O)c4cc(C(F)(F)F)cc(C(F)(F)F)c4)c3)cc2c1=O

>  <recorded-metric>
Ratio IC50

>  <readout-value>
109

$$$$
>  <compound>
COc1ncc(-c2ccc3ncn(C[C@@H](C)C(=O)NC(C)C)c(=O)c3c2)cc1NS(=O)(=O)c1ccc(F)cc1Cl

>  <recorded-metric>
Ratio IC50

>  <readout-value>
107

$$$$
>  <compound>
CCC(Cn1cnc2ccc(-c3cnc(OC)c(NS(=O)(=O)c4ccc(F)cc4Cl)c3)cc2c1=O)C(N)=O (racemic)

>  <recorded-metric>
Ratio IC50

>  <readout-value>
19.3

$$$$

Name the reported Ratio IC50 value associated with the compound COc1ncc(-c2ccc3ncc(NC(=O)N4CCC[C@H]4C(N)=O)c(=O)n3c2)cc1NS(=O)(=O)c1ccc(F)cc1Cl 130

* * *

- Organism: Homo sapiens
- assay-name: Selectivity ratio of IC50 for PI3Kbeta (unknown origin) using PIP2:3PS peptide as substrate preincubated for 15 mins followed by ATP addition at Km concentration and further incubated for 120 mins by ADP-Glo assay to IC50 for PI3Kalpha (unknown origin) using PIP2:3PS peptide as substrate preincubated for 15 mins followed by ATP addition at Km concentration and further incubated for 150 mins by ADP-Glo assay
Class membership depends on Ratio IC50 alone; the intervals are low group = under 50, middle group = from 50 up to 200, high group = 200 and over

>  <compound>
CNC(=O)[C@H](C)Cn1cnc2ccc(-c3cnc(OC)c(NS(=O)(=O)c4sc(C)nc4C)c3)cc2c1=O

>  <qualitative-label>
middle group

$$$$
>  <compound>
COc1ncc(-c2ccc3ncn(C[C@@H](C)C(=O)N4CCOCC4)c(=O)c3c2)cc1NS(=O)(=O)c1ccc(F)cc1Cl

>  <qualitative-label>
low group

$$$$
>  <compound>
COc1ncc(-c2ccc3ncn(CC(F)(F)C(N)=O)c(=O)c3c2)cc1NS(=O)(=O)c1ccc(F)cc1Cl

>  <qualitative-label>
low group

$$$$
>  <compound>
COc1ncc(-c2ccc3ncn(CCC(N)=O)c(=O)c3c2)cc1NS(=O)(=O)c1ccc(F)cc1Cl

>  <qualitative-label>
middle group

$$$$

Let us examine a further case.
For this compound, which bin applies? COc1ncc(-c2ccc3ncn(C[C@@H](C)C(=O)NC4COC4)c(=O)c3c2)cc1NS(=O)(=O)c1ccc(F)cc1Cl high group
